# measured target: wild type human RORγt ligand binding domain (RORγt LBD) (Homo sapiens, UniProt P51449)
# Construct: His-tag (N); TurboTEV protease cleavage site (ENLYFQG) (N)
# test method notes: RORγt ThermoFluor® Assay (thermal shift, binding affinity)
# settings: pH 7.0, estimated from concentration response curves
This listing pairs compounds with measured Kd.
metric name: Kd (nM)

> print(dat)
                                   compound  result.value
1  COc1c(-c2ccccc2)c(Cl)nc2ccc(C(O)(c3sc(C)nc3C)c3cnnn3C)cc12 (stereo not drawn) [Example 36]          0.89
2  Cc1cc(C(O)(c2ccc(Cl)cc2)c2cncn2C)cc2c(C#N)c(-c3ccccc3)c(C#N)nc12 (single isomer, unassigned) [Example 23b]         15000
3  CON(C)c1nc2ccc(C(O)(c3ccc(Cl)cc3)c3cncn3C)cc2c(Cl)c1-c1ccccc1 (stereo not drawn) [Example 58]           220

---

This listing pairs compounds with measured pIC50.
# measured target: wild type human RORγt LBD (Homo sapiens, UniProt P51449)
# Construct: expressed in transfected cells; host or cells: HEK293T
# Sequence (P51449 269-508 limits assumed): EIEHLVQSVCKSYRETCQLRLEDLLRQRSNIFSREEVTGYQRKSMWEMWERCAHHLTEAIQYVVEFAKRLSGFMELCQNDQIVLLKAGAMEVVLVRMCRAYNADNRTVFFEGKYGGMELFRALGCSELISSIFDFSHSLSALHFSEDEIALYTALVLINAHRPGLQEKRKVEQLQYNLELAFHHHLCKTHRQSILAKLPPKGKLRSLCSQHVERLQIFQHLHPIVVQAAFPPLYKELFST
# test method notes: RORγt Reporter Assay (GAL4-RORγt LBD luciferase in HEK293T cells)
# Format: cell-based
# settings: HEK293T cells, compounds for 24 hours; read-out: RORγt reporter Assay, IC50
pIC50: −log10 of the molar value.
metric name: pIC50

> print(dat)
                                    compound                           measured.target  comparison.symbol  result.value
 1  Cn1cncc1C(O)(c1ccc(Cl)cc1)c1ccc2nc(OCC(F)(F)F)c(-c3ccccc3)c(Cl)c2c1 (stereo not drawn)  wild type human RORγt LBD (Homo sapiens, UniProt P51449)                  =          6.24
 2  CC(=O)N1CCC(C(O)(c2ccccc2)c2cc(C)c3nc(C#N)c(-c4ccccc4)c(C#N)c3c2)CC1 (single isomer, unassigned) [Example 21b]  wild type human RORγt LBD (Homo sapiens, UniProt P51449)                  =          5.80
 3  COc1nc2ccc(C(O)(c3cncn3C)c3cnnn3C)cc2c(Cl)c1-c1cccc(C(F)(F)F)c1 (single isomer, unassigned) [Example 3b]  wild type human RORγt LBD (Homo sapiens, UniProt P51449)                  =          8.52
 4  COc1nc2ccc(C(O)(c3cncn3C)C3CCN(C(C)=O)CC3)cc2c(C#N)c1-c1cccc(C(F)(F)F)c1 (single isomer, unassigned) [Example 2c]  wild type human RORγt LBD (Homo sapiens, UniProt P51449)                  =          6.77
 5  Cn1cncc1C(O)(c1ccc2nc(C(F)(F)F)c(-c3ccccc3)c(Cl)c2c1)c1ccccn1 (stereo not drawn)  wild type human RORγt LBD (Homo sapiens, UniProt P51449)                  =          6.89
 6  COc1c(-c2ccccc2)c(C(F)(F)F)nc2ccc(C(O)(c3ccc(Cl)cc3)c3cncn3C)cc12 (stereo not drawn) [Example 33a]  wild type human RORγt LBD (Homo sapiens, UniProt P51449)                  =          6.19
 7  Cc1nc(C)c(C(O)(c2ccc(Cl)cc2)c2ccc3nc(Cl)c(-c4ccccc4)c(Cl)c3c2)s1 (stereo not drawn)  wild type human RORγt LBD (Homo sapiens, UniProt P51449)                  <          5.22
 8  Cn1cncc1C(O)(c1ccc(C(F)(F)F)nc1)c1ccc2nc(OCC(F)(F)F)c(-c3ccccc3)c(Cl)c2c1 (stereo not drawn)  wild type human RORγt LBD (Homo sapiens, UniProt P51449)                  =          6.36
 9  COc1nc2c(C)cc(C(O)(c3ccc(C(F)(F)F)nc3)c3cncn3C)cc2c(C#N)c1-c1ccc(OC(F)(F)F)cc1 (single isomer, unassigned) [Example 19c]  wild type human RORγt LBD (Homo sapiens, UniProt P51449)                  <          5.22
10  COc1nc2ccc(C(O)(c3ccc(C(F)(F)F)nc3)c3cncn3C)cc2c(Cl)c1-c1cnn(C)c1 (stereo not drawn)  wild type human RORγt LBD (Homo sapiens, UniProt P51449)                  =          6.05
11  CN(C)c1nc2ccc(C(c3ccc(Cl)cc3)c3cncn3C)cc2c(Cl)c1-c1ccccc1 (stereo not drawn)  wild type human RORγt LBD (Homo sapiens, UniProt P51449)                  =          5.85
